test: Cytosolic peptide stability assay
conditions: human, s9
measuredEndpoint: half-life (min)
Response body: numeric value in min, unit text excluded.

{"columns": ["recordSmiles", "half-life / min"],
 "data": [
  ["CC[C@H](C)[C@H](NC(=O)[C@@H](NC(=O)[C@H](CCC(=O)O)NC(=O)[C@@H]1CCCN1C(=O)[C@H](CO)NC(=O)[C@H](Cc1ccccc1)NC(=O)[C@H](C)NC(=O)[C@@H](N)CCCCN)C(C)C)C(=O)N1CCC[C@H]1C(=O)N[C@@H](CCSC)C(=O)N[C@@H](Cc1ccccc1)C(=O)O", 25.7]
]}

Now for another entry.
**Query** // returns reported half-life for input `CC[C@H](C)[C@H](NC(=O)[C@H](C)N)C(=O)N[C@@H](Cc1ccccc1)C(=O)N[C@@H](CCC(N)=O)C(=O)N[C@@H](CO)C(=O)N[C@@H](CO)C(=O)N[C@@H](CCSC)C(=O)N[C@H](C(=O)N[C@@H](CCCCN)C(=O)O)[C@@H](C)O`
**Result** 37.2

----------
test: in vitro
conditions: human, s9
Ends that are not written are not given here.
measuredEndpoint: half-life (min)
Give the value, in units of min, as a plain number.

**Query** // half-life lookup, key: ISPRTLNAW [ISW9]
**Result** 14.8
